Assay: in vitro
Details: human
recorded-endpoint: CC50 at 6 days

The measured CC50 at 6 days associated with CCC(CC)COC(=O)[C@H](C)N[P@](=O)(OC[C@H]1O[C@@](C#N)(c2ccc3c(N)ncnn23)[C@H](O)[C@@H]1O)Oc1ccccc1 [Remdesivir] reads > 2000 nM

###

Test: Cytotoxicity / viability of uninfected Huh-7 cells (XTT)
Conditions: human, uninfected Huh-7 cells
recorded-endpoint: viability at 6 days, 5 µM (%)
Write down the numeric answer in % and omit the unit.

// viability at 6 days, 5 µM value for CC[C@H]1CN2CCc3cc(OC)c(OC)cc3[C@@H]2C[C@@H]1C[C@H]1NCCc2cc(OC)c(OC)cc21 [Emetine] : 8.2

###

Test: in vitro
Settings: human
Structures can show the parent of a compound that is named as a salt.
recorded-endpoint: CC50 at 6 days (µM)
Return type: number; implicit unit µM.

Reported CC50 at 6 days of CCN(CC)CCNC(=O)c1c(C)[nH]c(/C=C2\C(=O)Nc3ccc(F)cc32)c1C [Sunitinib maleate, sunitinib malate] : 13

###

Assay: Cytotoxicity / viability of uninfected Huh-7 cells (XTT)
Conditions: human, uninfected Huh-7 cells
recorded-endpoint: cytotoxicity at 6 days, 5 μM

So for CC[C@H]1CN2CCc3cc(OC)c(OC)cc3[C@@H]2C[C@@H]1C[C@H]1NCCc2cc(OC)c(OC)cc21 [Emetine] , the logged cytotoxicity at 6 days, 5 μM turned out to be > 90%

###

Test: in vitro
Details: human
Counter-ions that a name gives are not always drawn.
Hi there, I'd appreciate the recorded viability at 6 days, 90 µM for every entry that follows.
Write it as a number; the unit % goes unstated.

Lookup result for CCN(CC)CCNC(=O)c1c(C)[nH]c(/C=C2\C(=O)Nc3ccc(F)cc32)c1C [Sunitinib maleate, sunitinib malate] ; measured viability at 6 days, 90 µM: 0.4

viability at 6 days, 90 µM for COc1ncccc1-c1cnn2ccc(N3CCN(C(=O)OC4(C)COC4)CC3)nc12 [Compound 1] is 57.1

###

Assay: Cytotoxicity / viability of uninfected Huh-7 cells (XTT)
Details: human, uninfected Huh-7 cells
recorded-endpoint: viability at 6 days, 1 µM (%)
A number alone suffices; assume %.

# viability at 6 days, 1 µM (compound: "CC[C@H]1CN2CCc3cc(OC)c(OC)cc3[C@@H]2C[C@@H]1C[C@H]1NCCc2cc(OC)c(OC)cc21" ) is 18.3

###

Assay: in vitro
Settings: human
Structures can show the parent of a compound that is named as a salt.
recorded-endpoint: viability at 6 days, 1.1 µM (%)
# output: bare number, implied unit %

Looking up CCN(CC)CCNC(=O)c1c(C)[nH]c(/C=C2\C(=O)Nc3ccc(F)cc32)c1C [Sunitinib maleate, sunitinib malate] , I see its viability at 6 days, 1.1 µM listed as 89.7

Reported viability at 6 days, 1.1 µM of COc1ncccc1-c1cnn2ccc(N3CCN(C(=O)OC4(C)COC4)CC3)nc12 [Compound 1] : 104

###

Assay: in vitro
Details: human
Structures can show the parent of a compound that is named as a salt.
recorded-endpoint: viability at 6 days, 0.01 µM (%)
Give the value in % but do not write % after it.

The recorded viability at 6 days, 0.01 µM for CCN(CC)CCNC(=O)c1c(C)[nH]c(/C=C2\C(=O)Nc3ccc(F)cc32)c1C [Sunitinib maleate, sunitinib malate] is 92

Memo: "COc1ncccc1-c1cnn2ccc(N3CCN(C(=O)OC4(C)COC4)CC3)nc12" , reported viability at 6 days, 0.01 µM: 96.9

###

Exercise: for every item that follows, state its recorded pEC50.
Tested on: HCoV-OC43 (Betacoronavirus 1)
Assay: microbe, parasite or virus in culture
Format: cell-based
Conditions: Betacoronavirus 1, NCI-H292, 144 h; EC50, HCoV-OC43-infected H292 cells, MTT, 6 days; read-out: Efficacy
Please keep in mind that pEC50 is minus log10 of the molar concentration; only the number is needed.

The compound CCN(CC)CCNC(=O)c1c(C)[nH]c(/C=C2\C(=O)Nc3ccc(F)cc32)c1C [Sunitinib] showed pEC50 equal to 6.39

According to the records, this compound COc1ncccc1-c1cnn2ccc(N3CCN(C(=O)OC4(C)COC4)CC3)nc12 [Compound 1] displays pEC50 of 5.03

###

Assay: in vitro
Conditions: human
Where a name gives a salt, the structure may show the parent alone.
recorded-endpoint: viability at 6 days, 30 µM
Give the value; after it, write the unit.

Entry CCN(CC)CCNC(=O)c1c(C)[nH]c(/C=C2\C(=O)Nc3ccc(F)cc32)c1C [Sunitinib maleate, sunitinib malate] — recorded viability at 6 days, 30 µM = 0.8%

The reported viability at 6 days, 30 µM of the compound "COc1ncccc1-c1cnn2ccc(N3CCN(C(=O)OC4(C)COC4)CC3)nc12" was 111%

The measured values listed here are drawn from patent US11666575B2.
